Recorded pKd by entry
- System: T1, ANTIBODY EXPRESSION CONTROL
- T1 construct: also called mouse anti-canine antibody (capture reagent of the expression control ELISA)
- Assay Explanation: SPR Biacore, expression control
pKd: −log10 of the molar value.

- Binder: "mouse: canine 19F07 chimera (antibody, V domains shown, Mouse variable domains on canine IgG constant regions; also called 19F07 (Mouse:Canine); mouse:dog chimera 19F07) VH: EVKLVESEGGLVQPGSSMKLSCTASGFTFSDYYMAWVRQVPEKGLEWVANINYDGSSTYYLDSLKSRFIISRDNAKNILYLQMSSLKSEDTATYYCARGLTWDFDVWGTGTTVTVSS VL: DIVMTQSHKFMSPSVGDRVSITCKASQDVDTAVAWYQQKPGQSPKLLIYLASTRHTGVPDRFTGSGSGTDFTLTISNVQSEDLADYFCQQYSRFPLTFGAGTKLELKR"
  pKd: 10.09
- Binder: "Mu_02D09_VH (SEQ ID NO: 31)_Y32A (antibody, V domains shown) VH: EVQLVESGGGLVKPGGSLTLSCAASGFTFSDAGMHWLRQAPEKGLEWVAYISSGSRAVFFADTVKGRFTISRDNAKNTLFLQMTSLRSDDTAMYYCARDRYDGRGFAYWGQGTLVTVSA VL: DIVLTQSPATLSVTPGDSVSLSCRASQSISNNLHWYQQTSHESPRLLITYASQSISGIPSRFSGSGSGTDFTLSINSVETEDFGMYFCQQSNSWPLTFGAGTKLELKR"
  pKd: 9.44
- Binder: "Mu_09E09_VL (SEQ ID NO: 37)_Y50A (antibody, V domains shown) VH: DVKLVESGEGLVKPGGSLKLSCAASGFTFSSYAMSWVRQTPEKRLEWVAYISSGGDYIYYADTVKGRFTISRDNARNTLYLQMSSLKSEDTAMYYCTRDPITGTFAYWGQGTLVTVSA VL: DLQMTQTTSSLSASLGDRVTISCRASQDINNYLNWYQQKPDGTVKLLIYATSTLHSGVPSRFSGSGSGTDYSLTISNLEQEDIATYFCQQGNTLPWTFGGGTKLEIKR"
  pKd: 9.59
